- assay.target: T1, 4H3782-AA
- T1 chain: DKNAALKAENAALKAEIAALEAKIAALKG
- protocol.text: two-hybrid library CCmax;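 further: natural log of median RNA to DNA barcode read ratio; higher means stronger binding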
- test.context: mean of both orientations
measurement.kind: interaction score

Past entries and their recorded results:
- binder: "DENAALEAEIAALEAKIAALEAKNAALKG [4H1064-AA]"
  interaction score: -0.855
- binder: "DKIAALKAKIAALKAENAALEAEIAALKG [4H2898-AA]"
  interaction score: -1.39
- binder: "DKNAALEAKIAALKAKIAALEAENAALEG [4H3427-AA]"
  interaction score: -0.991

(1) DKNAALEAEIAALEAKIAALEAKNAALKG [4H3112-AA]
(2) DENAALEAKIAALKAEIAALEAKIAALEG [4H1349-AA]
(3) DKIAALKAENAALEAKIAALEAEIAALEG [4H2721-AA]
(4) DKNAALKAEIAALKAEIAALEAENAALEG [4H3651-AA]
Q: Endpoint returns the given binders ordered by ascending interaction score. Lab note: record answer as labels in requested order.
Ans: 1, 4, 2, 3
(1: -0.975, 4: -0.2, 2: 0.414, 3: 1.73)

// provenance: paper PMC10397247
